tested on: Saccharomyces cerevisiae; test: fraction of cells in G1 phase (DNA content, flow cytometry); higher = more cells with unreplicated DNA (G1 delay); settings: temperature: 30 C; YPD; JTY2953 pdr5 snq2 (sensitized); drug added to: cultures diluted from stationary phase; 6-7 h
Counter-ions that a name gives are not always drawn.
Short version: fraction of cells in G1 phase at least 0.5 is T, less is F.

// below: answered molecules
{"columns": ["MOLECULE", "CATEGORY"],
 "data": [
  ["CN1CCC(=C2c3ccccc3C=Cc3ccccc32)CC1 [Cyproheptadine] (69.5874 µM)", "F"],
  ["CN[C@@H]1[C@@H](O[C@H]2O[C@H](CO)[C@@H](N)[C@H](O)[C@H]2O)OC2C[C@@H](N)[C@@H](O[C@H]3[C@H](O)[C@@H](O)[C@H](N)C[C@@H]3N)OC2[C@@H]1O (some centres undefined) [Apramycin] (37.0653 µM)", "F"],
  ["C#C[C@]1(O)CC[C@H]2[C@@H]3CCC4=CC(=O)CC[C@@H]4[C@H]3CC[C@@]21C [Norethindrone] (67.0176 µM)", "T"],
  ["CNCCCC12CCC(c3ccccc31)c1ccccc12 [Maprotiline HCl] (72.0947 µM)", "F"]
]}

q: # check: fraction of cells in G1 phase of CC(C(=O)O)c1ccc2c(c1)Cc1cccnc1O2 (centres undefined) [Pranoprofen] (78.3466 µM) is greater than or equal to 0.5
a: F

q: Check if fraction of cells in G1 phase >= 0.5 (inclusive). Item: COC(=O)[C@H](c1ccccc1Cl)N1CCc2sccc2C1 [Clopidogrel sulfate] (62.1449 µM)
a: T

###

test system: Saccharomyces cerevisiae; experiment: fraction of cells in G1 phase (DNA content, flow cytometry); higher = more cells with unreplicated DNA (G1 delay); conditions: temperature: 30 C; YPD; JTY2953 pdr5 snq2 (sensitized); drug added to: cultures diluted from stationary phase; 6-7 h
Where a name gives a salt, the structure may show the parent alone.
fraction of cells in G1 phase overview
# output: bare number, no unit

Example entries and their recorded answers appear below.
{"columns": ["MOLECULE", "fraction of cells in G1 phase"],
 "data": [
  ["C[C@H]1C[C@H]2[C@@H]3CCC4=CC(=O)C=C[C@]4(C)[C@@]3(F)[C@@H](O)C[C@]2(C)[C@@]1(O)C(=O)CO [Betamethasone] (39.6353 µM)", 0.508],
  ["CC(C)COCC(CN(Cc1ccccc1)c1ccccc1)N1CCCC1 (stereo not drawn) [Bepridil] (48.4262 µM)", 0.601],
  ["COCCc1ccc(OCC(O)CNC(C)C)cc1 (stereo not drawn) [Metoprolol tartrate] (74.8023 µM)", 0.491],
  ["CC[C@]1(O)C[C@H]2CN(CCc3c([nH]c4ccccc34)[C@@](C(=O)OC)(c3cc4c(cc3OC)N(C=O)[C@H]3[C@@](O)(C(=O)OC)[C@H](OC(C)=O)[C@]5(CC)C=CCN6CC[C@]43[C@@H]65)C2)C1 [Vincristine sulfate] (24.243 µM)", 0.481],
  ["Clc1ccc(C(Cn2ccnc2)OCc2ccsc2Cl)c(Cl)c1 (stereo not drawn) [Tioconazole] (51.5839 µM)", 0.863],
  ["CC(C)Nc1cccnc1N1CCN(C(=O)c2cc3cc(NS(C)(=O)=O)ccc3[nH]2)CC1 [Delavirdine mesylate] (43.8048 µM)", 0.487],
  ["C[C@]12C=CC(=O)C=C1CC[C@H]1[C@@H]3C[C@@H](O)[C@](O)(C(=O)CO)[C@@]3(C)C[C@H](O)[C@@]12F [Triamcinolone] (50.7043 µM)", 0.483],
  ["COC(=O)c1ccccc1O [Methyl salicylate] (131.448 µM)", 0.513],
  ["O=C(NCCNCC(O)COc1ccc(O)cc1)N1CCOCC1 (stereo not drawn) [Xamoterol hemifumarate] (58.9284 µM)", 0.518],
  ["Cc1ncc([N+](=O)[O-])n1CC(C)O (stereo not drawn) [Secnidazole] (108.001 µM)", 0.48]
]}

q: Quick one: fraction of cells in G1 phase of COc1ccc2[nH]c([S@@+]([O-])Cc3ncc(C)c(OC)c3C)nc2c1 [Esomeprazole potassium] (57.9 µM) ?
a: 0.522

q: I am curious: what fraction of cells in G1 phase value has been reported for CC(=O)[C@H]1CC[C@H]2[C@@H]3CCC4=CC(=O)CC[C@]4(C)[C@H]3CC[C@]12C [Progesterone] (63.5987 µM) ?
a: 0.607

q: For COC(=O)N[C@H](C(=O)N[C@@H](Cc1ccccc1)[C@@H](O)CN(Cc1ccc(-c2ccccn2)cc1)NC(=O)[C@@H](NC(=O)OC)C(C)(C)C)C(C)(C)C [Atazanavir] (28.3739 µM) , what is its reported fraction of cells in G1 phase?
a: 0.525
